# Test system: COR-L23
# Experimental details: relative viability (nuclei count vs DMSO), 5 days (fraction); higher = more cells survive
# Test parameters: first compound 4 µM

[
  {
    "Compound": "C[C@@H]1CN(CC(=O)Nc2ccc3c(c2)Cc2cccc(-c4cc(=O)cc(N5CCOCC5)o4)c2S3)C[C@H](C)O1 + CC(=O)c1c(C)c2cnc(Nc3ccc(N4CCNCC4)cn3)nc2n(C2CCCC2)c1=O [Palbociclib] (partner 0.5 µM)",
    "System tested": "COR-L23",
    "relative viability": 0.24
  },
  {
    "Compound": "C[C@@H]1CN(CC(=O)Nc2ccc3c(c2)Cc2cccc(-c4cc(=O)cc(N5CCOCC5)o4)c2S3)C[C@H](C)O1 + O=C(c1cc(Cc2n[nH]c(=O)c3ccccc23)ccc1F)N1CCN(C(=O)C2CC2)CC1 [Olaparib] (partner 8 µM)",
    "System tested": "COR-L23",
    "relative viability": 0.185
  },
  {
    "Compound": "Clc1ccc(Nc2nnc(Cc3ccncc3)c3ccccc23)cc1 [Vatalanib] + C[C@]1(O)C[C@@H](c2nc(-c3ccc4ccc(-c5ccccc5)nc4c3)c3c(N)nccn32)C1 [Linsitinib] (partner 1 µM)",
    "System tested": "COR-L23",
    "relative viability": 0.922
  },
  {
    "Compound": "C[C@@H]1CN(CC(=O)Nc2ccc3c(c2)Cc2cccc(-c4cc(=O)cc(N5CCOCC5)o4)c2S3)C[C@H](C)O1 + Cc1nc(Nc2ncc(C(=O)Nc3c(C)cccc3Cl)s2)cc(N2CCN(CCO)CC2)n1 [Dasatinib] (partner 0.075 µM)",
    "System tested": "COR-L23",
    "relative viability": 0.369
  },
  {
    "Compound": "C[C@@H]1CN(CC(=O)Nc2ccc3c(c2)Cc2cccc(-c4cc(=O)cc(N5CCOCC5)o4)c2S3)C[C@H](C)O1 + Cc1nc(NC(=O)N2CCC[C@H]2C(N)=O)sc1-c1ccnc(C(C)(C)C(F)(F)F)c1 [Alpelisib] (partner 2 µM)",
    "System tested": "COR-L23",
    "relative viability": 0.727
  },
  {
    "Compound": "C[C@@H]1CN(CC(=O)Nc2ccc3c(c2)Cc2cccc(-c4cc(=O)cc(N5CCOCC5)o4)c2S3)C[C@H](C)O1 + CS(=O)(=O)CCNCc1ccc(-c2ccc3ncnc(Nc4ccc(OCc5cccc(F)c5)c(Cl)c4)c3c2)o1 [Lapatinib] (partner 2 µM)",
    "System tested": "COR-L23",
    "relative viability": 1.05
  },
  {
    "Compound": "Clc1ccc(Nc2nnc(Cc3ccncc3)c3ccccc23)cc1 [Vatalanib] + Nc1nc2[nH]cc(CCc3ccc(C(=O)N[C@@H](CCC(=O)O)C(=O)O)cc3)c2c(=O)[nH]1 [Pemetrexed] (partner 0.2 µM)",
    "System tested": "COR-L23",
    "relative viability": 0.208
  },
  {
    "Compound": "COc1cc(N2CCC(C(N)=O)CC2)ccc1Nc1nc(N)c(Cl)c(Nc2ccccc2S(=O)(=O)C(C)C)n1 [HG-5-88-01] + O=C(CCCCCCC(=O)Nc1ccccc1)NO [Vorinostat] (partner 1 µM)",
    "System tested": "COR-L23",
    "relative viability": 0.227
  },
  {
    "Compound": "COc1cc(N2CCC(C(N)=O)CC2)ccc1Nc1nc(N)c(Cl)c(Nc2ccccc2S(=O)(=O)C(C)C)n1 [HG-5-88-01] + CS(=O)(=O)CCNCc1ccc(-c2ccc3ncnc(Nc4ccc(OCc5cccc(F)c5)c(Cl)c4)c3c2)o1 [Lapatinib] (partner 2 µM)",
    "System tested": "COR-L23",
    "relative viability": 0.629
  },
  {
    "Compound": "COc1cc(N2CCC(C(N)=O)CC2)ccc1Nc1nc(N)c(Cl)c(Nc2ccccc2S(=O)(=O)C(C)C)n1 [HG-5-88-01] + C[C@]1(O)C[C@@H](c2nc(-c3ccc4ccc(-c5ccccc5)nc4c3)c3c(N)nccn32)C1 [Linsitinib] (partner 1 µM)",
    "System tested": "COR-L23",
    "relative viability": 0.757
  },
  {
    "Compound": "Clc1ccc(Nc2nnc(Cc3ccncc3)c3ccccc23)cc1 [Vatalanib] + CCNC(=O)c1noc(-c2cc(C(C)C)c(O)cc2O)c1-c1ccc(CN2CCOCC2)cc1 [Luminespib] (partner 0.01 µM)",
    "System tested": "COR-L23",
    "relative viability": 0.588
  },
  {
    "Compound": "C[C@@H]1CN(CC(=O)Nc2ccc3c(c2)Cc2cccc(-c4cc(=O)cc(N5CCOCC5)o4)c2S3)C[C@H](C)O1 + CC1(C)CCC(c2ccc(Cl)cc2)=C(CN2CCN(c3ccc(C(=O)NS(=O)(=O)c4ccc(N[C@H](CCN5CCOCC5)CSc5ccccc5)c(S(=O)(=O)C(F)(F)F)c4)cc3)CC2)C1 [Navitoclax] (partner 0.5 µM)",
    "System tested": "COR-L23",
    "relative viability": 0.962
  },
  {
    "Compound": "C[C@@H]1CN(CC(=O)Nc2ccc3c(c2)Cc2cccc(-c4cc(=O)cc(N5CCOCC5)o4)c2S3)C[C@H](C)O1 + CC(=O)Nc1cccc(-n2c(=O)n(C3CC3)c(=O)c3c(Nc4ccc(I)cc4F)n(C)c(=O)c(C)c32)c1 [Trametinib] (partner 0.02 µM)",
    "System tested": "COR-L23",
    "relative viability": 0.447
  }
]
